Target: T1, human ACTH 18-39 (human)
T1 construct: also called CLIP; CLIP (ACTH 18-39)
T1 peptide: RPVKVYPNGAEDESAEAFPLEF
Experiment: SPR ProteOn, antibody immobilised
Readings of Kd for the listed binders
Supply the numeric figure in nM, leaving out any unit text.

Solved cases below.
Ab2.H (antibody, human IgG1, kappa, N297A, V domains shown, humanized form of Ab2) VH: EVQLVESGGGLVQPGGSLRLSCAASGFTVSKYDMIWVRQAPGKGLESIGIIYDDGDTYYASSAKGRFTISRDNSKNTLYLQMNSLRAEDTAVYYCVKGVSNIWGQGTLVTVSS VL: DIQMTQSPSTLSASVGDRVTITCQASQSISNYLAWYQQKPGKAPKLLIYSASTLASGVPSRFSGSGSGTEFTLTISSLQPDDFATYYCQSYEGSSSSSYGVGFGGGTKVEIKR; 28
Ab4.H (antibody, human IgG1, kappa, N297A, V domains shown, humanized form of Ab4) VH: EVQLVESGGGLVQPGGSLRLSCAASGFTVSKHDMIWVRQAPGKGLESIGIIYDDGDTYYANSAKGRFTISRDNSKNTLYLQMNSLRAEDTAVYYCVKGVSNIWGQGTLVTVSS VL: DIQMTQSPSTLSASVGDRVTITCRASQSISVYLAWYQQKPGKAPKLLIYQASKLASGVPSRFSGSGSGTEFTLTISSLQPDDFATYYCQSYDGSSSSSYGVGFGGGTKVEIKR; 92
Ab1.H (antibody, human IgG1, kappa, N297A, V domains shown, humanized form of Ab1) VH: EVQLVESGGGLVQPGGSLRLSCAASGFTVSNYDMIWVRQAPGKGLESIGMIYDDGDTYYASSAKGRFTISRDNSKNTLYLQMNSLRAEDTAVYYCVKGVSNHWGQGTLVTVSS VL: DIQMTQSPSTLSASVGDRVTITCQASQSISSYLAWYQQKPGKAPKLLIYSASTLASGVPSRFSGSGSGTEFTLTISSLQPDDFATYYCQSYDGSSGSSYGVGFGGGTKVEIKR; 20

Sure, the documented Kd for Ab2 (antibody, human IgG1, kappa, N297A, V domains shown, rabbit/human chimeric antibody, made in HEK-293) VH: QSVEESGGRLVTPGTPLTLTCTVSGFSLSKYDMIWVRQAPGKGLESIGIIYDDGDTYYASWAKGRFTISQTSTTVDLKIISPTTEDTATYFCVKGVSNIWGQGTLVTVSS VL: DVVMTQTPASVEAAVGGTVTIKCQASQSISNYLAWYQQKTGQPPKLLIYSASTLASGVPSRFKGSGSGTEFTLTISDLECADAATYYCQSYEGSSSSSYGVGFGGGTEVVVKR is 31
